- Tested on: HCT-15 colon
- assayExplanation: NCI tumour cell line growth inhibition, 48 h

# compound, TGI
measured = [
    ("SCc1ccc(CS)s1", "> 100 µM"),
    ("COc1cc(-c2n/c(=C\\c3c(O)[nH]c4cc(Cl)ccc34)cc3c2=Nc2ccccc2-3)cc(OC)c1OC", "> 100 µM"),
    ("O=c1c2cc(Cl)ccc2[nH]c2cc(O)cc(O)c12", "> 10 µM"),
    ("COc1c(-c2ccc(O)c(O)c2)oc2c(O)c(O)cc(O)c2c1=O", "> 100 µM"),
    ("Cc1[nH]nc2c1N=C(c1ccccc1F)c1cc(C(N)=O)ccc1N2", "> 25 µM"),
    ("CCOC(=O)c1c(-c2ccc(Br)cc2)ccn1C", "> 10 µM"),
    ("O=S1(=O)CCCS(=O)(=O)C(c2ccccc2)=C1c1ccccc1", "> 100 µM"),
    ("CCOC(=O)[C@H]1Nc2ccc([N+](=O)[O-])cc2C2c3ccccc3CC21 (stereo partly drawn)", "41.5 µM"),
]
